Assay: in vitro
Settings: CD-1, mouse, plasma, pH 7.4
reported-property: half-life at 2 µM (min)

>>> recorded_measurement("CC(C)[N+](C)(CCOC(=O)C1c2ccccc2Oc2ccccc21)C(C)C")
70.4
>>> recorded_measurement("CC[C@H](C)C(=O)O[C@H]1C[C@@H](C)C=C2C=C[C@H](C)[C@H](CC[C@@H]3C[C@@H](O)CC(=O)O3)[C@H]21")
14.4

###

Assay: Stability in simulated intestinal fluid (SIF)
Assay type: in vitro ADME
Conditions: simulated intestinal fluid (SIF), SIF pH 5.5
reported-property: half-life at 2 µM (h)

>>> recorded_measurement("CC(C)[N+](C)(CCOC(=O)C1c2ccccc2Oc2ccccc21)C(C)C")
13.6
